Data provenance is patent US12679822B2.

- MEASURED_TARGET: BaF3 cell lines stably transfected with kinase EGFR L858R/T790M (Homo sapiens, UniProt P00533, T790M/L858R, cells depend on it)
- Sequence (P00533 whole entry T790M/L858R): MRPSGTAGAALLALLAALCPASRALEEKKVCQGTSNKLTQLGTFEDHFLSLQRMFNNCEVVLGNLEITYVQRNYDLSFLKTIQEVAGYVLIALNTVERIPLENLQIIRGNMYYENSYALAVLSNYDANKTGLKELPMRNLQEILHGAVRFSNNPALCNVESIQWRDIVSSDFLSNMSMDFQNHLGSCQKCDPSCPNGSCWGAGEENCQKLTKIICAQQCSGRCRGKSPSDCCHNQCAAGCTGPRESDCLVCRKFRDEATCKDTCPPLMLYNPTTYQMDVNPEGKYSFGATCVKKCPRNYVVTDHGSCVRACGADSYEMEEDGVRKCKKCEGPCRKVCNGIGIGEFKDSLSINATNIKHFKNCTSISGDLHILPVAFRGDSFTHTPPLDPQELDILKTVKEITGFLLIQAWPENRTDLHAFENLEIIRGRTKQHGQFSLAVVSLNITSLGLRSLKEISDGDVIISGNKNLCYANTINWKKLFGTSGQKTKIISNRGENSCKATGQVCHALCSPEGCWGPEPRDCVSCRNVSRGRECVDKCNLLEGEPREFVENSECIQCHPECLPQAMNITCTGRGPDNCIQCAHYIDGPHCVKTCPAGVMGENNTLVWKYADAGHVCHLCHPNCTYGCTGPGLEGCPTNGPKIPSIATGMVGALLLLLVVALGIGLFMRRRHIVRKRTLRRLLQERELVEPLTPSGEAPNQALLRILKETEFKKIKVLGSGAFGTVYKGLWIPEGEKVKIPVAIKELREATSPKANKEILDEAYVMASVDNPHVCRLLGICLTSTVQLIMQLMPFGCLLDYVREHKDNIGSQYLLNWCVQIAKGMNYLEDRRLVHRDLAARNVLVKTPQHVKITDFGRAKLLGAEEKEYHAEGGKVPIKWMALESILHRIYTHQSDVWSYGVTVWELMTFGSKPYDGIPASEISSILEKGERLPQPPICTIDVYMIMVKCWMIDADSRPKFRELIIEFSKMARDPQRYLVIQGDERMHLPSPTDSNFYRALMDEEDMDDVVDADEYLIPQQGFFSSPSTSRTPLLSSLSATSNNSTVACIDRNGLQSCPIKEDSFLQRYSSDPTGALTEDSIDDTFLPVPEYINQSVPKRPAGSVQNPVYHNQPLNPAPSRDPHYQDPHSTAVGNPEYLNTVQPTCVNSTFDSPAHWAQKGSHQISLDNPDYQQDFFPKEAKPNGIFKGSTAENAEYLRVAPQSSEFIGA
- MEASUREMENT_NOTES: Growth inhibition of BaF3 cell line stably transfected with kinase EGFR L858R/T790M (MTS)
- Assay type: cell-based
- ASSAY_SETUP: 48 h, read-out: growth inhibitory activity IC50, L858R/T790M
Reported GI50 values for a set of compounds
MEASURED_PROPERTY: GI50

>>> result("C=Cc1cnc(Nc2cc(CC)c(N3CCC(N4CCN(C)CC4)CC3)cc2OC(F)(F)F)nc1Nc1ccc2nccnc2c1NS(C)(=O)=O")
"50 to 500 nM"
>>> result("C=C(C)c1cnc(Nc2cc[nH]n2)nc1Nc1ccc2nccnc2c1N(C)S(C)(=O)=O")
"50 to 500 nM"
>>> result("C=Cc1cnc(Nc2cc(CC)c(N3CCC(N(C)C)CC3)cc2OC)nc1Nc1ccc2nccnc2c1NS(C)(=O)=O")
"≤ 50 nM"
>>> result("C=Cc1cnc(Nc2cnn(C)c2)nc1Nc1ccc2nccnc2c1N(C)S(C)(=O)=O")
"50 to 500 nM"
>>> result("C=Cc1cnc(Nc2cnn(CC)c2)nc1Nc1ccc2nccnc2c1N(C)S(C)(=O)=O")
"500 to 2500 nM"
>>> result("C=Cc1cnc(Nc2cc(C(C)C)c(N3CCC(N4CCN(C)CC4)CC3)cc2OC)nc1Nc1ccc2nccnc2c1P(C)(C)=O")
"50 to 500 nM"
>>> result("C=Cc1cnc(Nc2cc(C(C)C)c(N3CCC(N4CCN(C)CC4)CC3)cc2OC)nc1Nc1ccc2nccnc2c1S(=O)(=O)C(C)C")
"50 to 500 nM"
